Measured t1/2 values are reported for all entries that follow.
Biological target: T1, cyno IL-33 N-His (cynomolgus monkey)
T1 chain: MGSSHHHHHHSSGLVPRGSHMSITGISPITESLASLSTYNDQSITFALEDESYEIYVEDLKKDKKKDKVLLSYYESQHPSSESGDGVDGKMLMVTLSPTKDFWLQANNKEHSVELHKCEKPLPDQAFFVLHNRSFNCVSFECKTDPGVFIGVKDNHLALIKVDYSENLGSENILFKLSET
Test: SPR Biacore T200, 37 C
Quick note: give the figure in min, leave out the unit.

Worked cases, t1/2 given:
>>> value("H4H9667P (antibody, V domains shown) VH: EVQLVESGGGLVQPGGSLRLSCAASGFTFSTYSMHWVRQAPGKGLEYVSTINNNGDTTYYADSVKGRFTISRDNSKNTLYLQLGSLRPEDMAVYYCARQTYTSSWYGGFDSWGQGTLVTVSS VL: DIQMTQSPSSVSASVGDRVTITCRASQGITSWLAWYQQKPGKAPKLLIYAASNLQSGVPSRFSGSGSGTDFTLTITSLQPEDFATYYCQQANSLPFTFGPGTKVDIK")
5
>>> value("H4H9660P (antibody, V domains shown) VH: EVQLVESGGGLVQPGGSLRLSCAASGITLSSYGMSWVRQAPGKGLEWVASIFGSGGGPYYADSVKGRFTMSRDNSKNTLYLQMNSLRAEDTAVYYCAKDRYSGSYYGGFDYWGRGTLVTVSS VL: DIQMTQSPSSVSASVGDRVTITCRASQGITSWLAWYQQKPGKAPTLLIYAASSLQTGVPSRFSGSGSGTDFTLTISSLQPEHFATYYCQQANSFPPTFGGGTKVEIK")
4

Short answer for H4H9670P (antibody, V domains shown) VH: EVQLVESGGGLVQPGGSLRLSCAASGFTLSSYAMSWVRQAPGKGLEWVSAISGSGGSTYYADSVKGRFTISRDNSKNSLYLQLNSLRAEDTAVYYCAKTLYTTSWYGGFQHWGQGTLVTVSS VL: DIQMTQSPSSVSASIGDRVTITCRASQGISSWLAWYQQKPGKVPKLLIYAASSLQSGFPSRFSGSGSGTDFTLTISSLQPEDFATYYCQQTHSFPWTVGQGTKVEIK : t1/2 was 5
